Biological target: T1, CD22 on the cell membrane of CD22-positive cell lines (Raji, REH, CA46) (UniProt P20273 20-847, limits assumed)
T1 construct: whole, on cells; Raji and CA46: relatively high expression of CD22; REH: relatively medium expression; also called CD22 on cell membrane
Experiment: FACS on CA46 cells
OUTCOME_MEASURE: EC50 (mg/L)
Just the number in mg/L, nothing appended.

-- ask GET /values?readout=EC50&item= mAb-4 (antibody, human IgG1, kappa, V domains shown, Humanized IgG1/kappa antibody; also called V1 HC + V4 LC) VH: EVQLVESGGGLVKPGGSLRLSCAASGFAFSIYDMSWVRQAPGKCLEWVAYISSGGGTTYYPDSVKGRFTISRENAKNSLYLQMNSLKSEDTAMYYCARHSGYGTHWGVLFAYWGQGTMVTVSS VL: DIQMTQSPSTLSASVGDRVTITCRASQDISNYLNWFQQRPGQSPRLLIYYTSILHSGVPSRFSGSGSGTDYTLTISSLQPEDFATYYCQQGNTLPWTFGCGTKVEIKR
-- reply 0.152
